src = patent US8778871B2

target: hOT7T175 (Homo sapiens, UniProt Q969F8, L364H); construct: expressed in transfected cells; type: cell-based; conditions: hOT7T175/CHO, FLIPR, evaluation for 40 seconds after initiation of the reaction
Sequence (Q969F8 whole entry L364H): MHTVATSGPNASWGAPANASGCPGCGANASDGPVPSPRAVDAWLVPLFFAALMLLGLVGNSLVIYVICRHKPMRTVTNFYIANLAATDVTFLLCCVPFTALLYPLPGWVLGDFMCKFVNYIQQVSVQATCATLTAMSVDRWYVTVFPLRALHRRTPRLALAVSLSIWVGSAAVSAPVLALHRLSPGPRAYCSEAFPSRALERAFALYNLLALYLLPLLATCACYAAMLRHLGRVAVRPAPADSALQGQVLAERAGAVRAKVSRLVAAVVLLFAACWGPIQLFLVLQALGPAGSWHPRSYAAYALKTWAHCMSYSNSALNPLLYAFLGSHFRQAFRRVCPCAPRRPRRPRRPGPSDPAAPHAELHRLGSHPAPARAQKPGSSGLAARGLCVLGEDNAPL
Non-standard residues stand in square brackets, D forms with d. Arg(Me) = CNC(=N)NCCC[C@H](N)C(=O)O; azaGly = NNC(=O)O
measuredEndpoint: Specific Act. (EC50/MS10 EC50)

substance | systemTested | readoutNumber
Acp-D-Tyr-D-Pya(4)-Asn-Ser-Phe-AzaGly-Leu-Arg(Me)-Phe-NH2 [Compound No. 504] | hOT7T175 (Homo sapiens, UniProt Q969F8, L364H) | 6.9
Arg-D-Tyr-D-Pya(4)-Asn-Ser-Phe-AzaGly-Leu-Arg(Me)-Trp-NH2 [Compound No. 536] | hOT7T175 (Homo sapiens, UniProt Q969F8, L364H) | 1.8
Ac-D-Tyr-Pya(4)-Asn-Thr-Phe-AzaGly-Leu-Arg(Me)-Trp-NH2 [Compound No. 624] | hOT7T175 (Homo sapiens, UniProt Q969F8, L364H) | 1.2
Ac-D-Tyr-D-Pro-Asn-Thr-Phe-AzaGly-Leu-Arg(Me)-Trp-NH2 (Ac-[dY][dP]NTF[azaGly]L[Arg(Me)]W-NH2; SMILES CNC(=N)NCCC[C@H](NC(=O)[C@H](CC(C)C)NC(=O)NNC(=O)[C@H](Cc1ccccc1)NC(=O)[C@@H](NC(=O)[C@H](CC(N)=O)NC(=O)[C@H]1CCCN1C(=O)[C@@H](Cc1ccc(O)cc1)NC(C)=O)[C@@H](C)O)C(=O)N[C@@H](Cc1c[nH]c2ccccc12)C(N)=O) [Compound No. 661] | hOT7T175 (Homo sapiens, UniProt Q969F8, L364H) | 8.5
